biological target: AURKB (MV4-11^AURKB-HiBiT cells) (Homo sapiens); construct: expressed in transfected cells; host or cells: MV4-11, lentiviral transduction (pRRL-PGK vector); assay: HiBiT assay, AURKB degradation; type: cell-based; conditions: 6 h treatment
Sequence (Q96GD4 1-345 isoform Q96GD4-5): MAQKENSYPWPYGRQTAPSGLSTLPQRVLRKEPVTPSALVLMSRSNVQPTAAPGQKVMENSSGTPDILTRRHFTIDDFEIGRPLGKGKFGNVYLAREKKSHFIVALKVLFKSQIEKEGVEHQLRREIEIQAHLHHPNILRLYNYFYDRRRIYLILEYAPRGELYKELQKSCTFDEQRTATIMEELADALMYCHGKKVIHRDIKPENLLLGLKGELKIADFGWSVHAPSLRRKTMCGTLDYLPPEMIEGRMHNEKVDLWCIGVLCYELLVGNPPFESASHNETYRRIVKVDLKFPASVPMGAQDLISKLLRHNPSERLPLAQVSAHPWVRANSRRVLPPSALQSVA

[
  {
    "COMPOUND": "COc1cc(N2CCC(OCC(=O)N3CCN(c4cccc5c4C(=O)N(C4CCC(=O)NC4=O)C5=O)CC3)CC2)ccc1Nc1nc(Nc2ccccc2S(=O)(=O)C(C)C)c2nc[nH]c2n1 (centres unmarked) [Compound 40]",
    "Dmax (maximal degradation) AURKB / %": 43.70
  },
  {
    "COMPOUND": "CC(C)S(=O)(=O)c1ccccc1Nc1nc(Nc2ccc(N3CCN(C(=O)COCCOCC(=O)Nc4cccc5c4C(=O)N(C4CCC(=O)NC4=O)C5=O)CC3)cc2)nc2[nH]cnc12 (centres unmarked) [Compound 18]",
    "Dmax (maximal degradation) AURKB / %": 22.20
  },
  {
    "COMPOUND": "Cc1ncsc1-c1ccc(CNC(=O)[C@@H]2C[C@@H](O)CN2C(=O)[C@@H](NC(=O)COCCOCC(=O)N2CCN(c3ccc(Nc4nc(Nc5ccccc5S(=O)(=O)C(C)C)c5nc[nH]c5n4)cc3)CC2)C(C)(C)C)cc1 [Compound 49]",
    "Dmax (maximal degradation) AURKB / %": 32.17
  },
  {
    "COMPOUND": "CC(C)S(=O)(=O)c1ccccc1Nc1nc(Nc2ccc(N3CCN(CCCC(=O)Nc4cccc5c4C(=O)N(C4CCC(=O)NC4=O)C5=O)CC3)cc2)nc2[nH]cnc12 (centres unmarked) [Compound 27]",
    "Dmax (maximal degradation) AURKB / %": 48.90
  },
  {
    "COMPOUND": "CC(C)S(=O)(=O)c1ccccc1Nc1nc(Nc2ccc(N3CCN(CC(=O)Nc4cccc5c4C(=O)N(C4CCC(=O)NC4=O)C5=O)CC3)cc2)nc2[nH]cnc12 (centres unmarked) [Compound 26]",
    "Dmax (maximal degradation) AURKB / %": 33.40
  }
]

----------
biological target: AURKB (MV4-11^AURKB-HiBiT cells) (Homo sapiens); construct: expressed in transfected cells; host or cells: MV4-11, lentiviral transduction (pRRL-PGK vector); experiment: HiBiT assay, AURKB degradation; assay type: cell-based; conditions: 6 h treatment
Cut-off 30% on Dmax (maximal degradation) AURKB, inclusive. At or above means label 1; below means label 0.

[
  {
    "COMPOUND": "CN1C(=O)CCC(N2C(=O)c3cccc(NC(=O)CCCC(=O)NCC(=O)N4CCN(c5ccc(Nc6nc(NC7CCCCC7)c7nc[nH]c7n6)cc5)CC4)c3C2=O)C1=O (centres unmarked)",
    "GROUP": "label 1"
  },
  {
    "COMPOUND": "CC(C)S(=O)(=O)c1ccccc1Nc1nc(Nc2ccc(N3CCN(C(=O)CCCC(=O)Nc4cccc5c4C(=O)N(C4CCC(=O)NC4=O)C5=O)CC3)cc2)nc2[nH]cnc12 (centres unmarked)",
    "GROUP": "label 1"
  },
  {
    "COMPOUND": "CC(C)S(=O)(=O)c1ccccc1Nc1nc(Nc2ccc(N3CCN(C(=O)CCC(=O)NCCNc4cccc5c4C(=O)N(C4CCC(=O)NC4=O)C5=O)CC3)cc2)nc2[nH]cnc12 (centres unmarked)",
    "GROUP": "label 0"
  }
]
